System: E. coli
Test: AK assay 384-well format, Prestwick library screening
Assay type: cell-based, Escherichia coli
Settings: Escherichia coli, 3 h, 50 μM final drug concentration; […]; read-out: AK-based Prestwick Library Screening Results, E. coli (fold increase in extracellular AK activity)
Where a name gives a salt, the structure may show the parent alone.
reported endpoint: fold induction at 50 µM
// return just the number, without any unit appended

Solved entries:
>>> reported_result("COc1cc([C@@H]2c3cc4c(cc3[C@H](O)[C@H]3COC(=O)[C@H]23)OCO4)cc(OC)c1OC")
1.2
>>> reported_result("CCOC(=O)c1cncn1[C@H](C)c1ccccc1 [Etomidate]")
0.5
>>> reported_result("C[C@]12CC[C@H]3[C@@H](CC[C@]4(O)C[C@@H](O)CC[C@]34C=O)[C@@]1(O)CC[C@@H]2C1=CC(=O)OC1")
1.4
>>> reported_result("NCC1(CC(=O)O)CCCCC1")
1.4
>>> reported_result("CC(COc1ccccc1)N(CCCl)Cc1ccccc1 (stereo not drawn) [Phenoxybenzamine hydrochloride]")
1.4

Qu. // query fold induction at 50 µM value for entry CCC(=O)OCC(=O)[C@@]1(OC(=O)CC)[C@H](C)C[C@H]2[C@H]3[C@H]([C@@H](O)C[C@@]21C)[C@@]1(C)C=CC(=O)C=C1C[C@H]3Cl [Alclometasone dipropionate]
Ans. 1.1

====

Test system: E. cloacae
Assay: AK assay 384-well format, Prestwick library screening
Assay type: cell-based, Enterobacter cloacae
Conditions: Enterobacter cloacae, 3 h; 50 μM final drug concentration; planktonic; cutoff for positive-scoring molecules 3-fold increase; read-out: AK-based Prestwick Library Screening Results, E. cloacae (fold increase in extracellular AK activity)
Where a name gives a salt, the structure may show the parent alone.
Everything with fold induction at 50 µM lower than 0.9 is -1; everything else, including exactly 0.9, is 1.

Here's what some known entries look like.
>>> assigned_class("O=P1(NCCCl)OCCCN1CCCl (centres unmarked) [Ifosfamide]")
1
>>> assigned_class("CC(C(=O)O)c1cccc(Oc2ccccc2)c1 (centres unmarked) [Fenoprofen calcium salt dihydrate]")
1
>>> assigned_class("CC(C)[N+](C)(CCOC(=O)C1c2ccccc2Oc2ccccc21)C(C)C [Propantheline bromide]")
1
>>> assigned_class("C#C[C@]1(OC(C)=O)CC[C@H]2[C@@H]3CCC4=C[C@@H](OC(C)=O)CC[C@@H]4[C@H]3CC[C@@]21C [Ethynodiol diacetate]")
1
>>> assigned_class("CC(C)(C)NCC(O)COc1cccc2c1CC(O)C(O)C2 (centres unmarked)")
-1

Okay, next one:
Qu. For this molecule, is measured fold induction at 50 µM 0.9 or higher? O=C1OCCN1/N=C/c1ccc([N+](=O)[O-])o1
Ans. -1

====

System: E. coli
Assay: AK assay 384-well format, Prestwick library screening
Type: cell-based, Escherichia coli
Conditions: Escherichia coli, 3 h, planktonic E. coli; 50 μM final drug concentration; […]; read-out: AK-based Prestwick Library Screening Results, E. coli (increase in extracellular AK activity)
Counter-ions that a name gives are not always drawn.
reported endpoint: fold induction at 50 µM

>>> reported_result("COc1ccc2c3c1O[C@H]1C[C@@H](O)C=C[C@@]31CCN(C)C2 [Galanthamine hydrobromide]")
0.9
>>> reported_result("C[C@H]1CC[C@]2(NC1)O[C@H]1C[C@H]3[C@@H]4CC[C@H]5C[C@@H](O)CC[C@]5(C)[C@H]4CC[C@]3(C)[C@H]1[C@@H]2C")
0.7

Qu. // query fold induction at 50 µM value for entry C[C@H]1C[C@H]2[C@@H]3CCC4=CC(=O)C=C[C@]4(C)[C@@]3(F)[C@@H](O)C[C@]2(C)[C@@]1(O)C(=O)CO
Ans. 1.1
